Assay: Volume of distribution at steady state in rat at 1 mg/kg, iv
Type: ADME, organism-based
Settings: in vivo, read-out: Vdss
ENDPOINT NAME: Vd (L/kg)
Expressed in L/kg, but write only the number.

*Q* Find the recorded Vd belonging to Cc1cccc2ccc(N3CCC(C(=O)N[C@H]4CCC[C@H]4CCc4ccccc4C(=O)O)CC3)nc12 and report it.
*A* 4.8

---

Assay: Oral bioavailability in dog at 3 mg/kg
Conditions: in vivo
ENDPOINT NAME: bioavailability (%)
Give the number; % is assumed, so skip it.

*Q* Could you tell me which bioavailability is on file for Cc1cccc2ccc(N3CCC(C(=O)N[C@H]4CCC[C@H]4CCc4ccccc4C(=O)O)CC3)nc12 ?
*A* 68
